These measurements were taken from patent US20230049752A1.

target: human Claudin-6 (CLDN6) (human) (UniProt P56747); assay: FACS, 1.5 ug Ab, OVCA429 cells (2nd Ab only 885.77)
Readings of FACS fluorescence for the listed binders
measured attribute: FACS fluorescence

binder	recorded number
AB9-3 (antibody, V domains shown) VH: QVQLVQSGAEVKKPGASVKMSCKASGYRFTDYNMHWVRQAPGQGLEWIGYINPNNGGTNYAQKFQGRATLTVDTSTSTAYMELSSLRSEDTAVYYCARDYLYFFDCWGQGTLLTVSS VL: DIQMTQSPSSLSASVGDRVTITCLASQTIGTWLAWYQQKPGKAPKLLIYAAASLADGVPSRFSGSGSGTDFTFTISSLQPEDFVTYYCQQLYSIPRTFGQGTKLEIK	1260
AB4-3 (antibody, V domains shown, humanized) VH: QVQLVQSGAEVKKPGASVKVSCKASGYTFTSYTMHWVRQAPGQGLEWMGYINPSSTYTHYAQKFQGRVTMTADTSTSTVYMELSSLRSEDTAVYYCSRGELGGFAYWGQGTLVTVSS VL: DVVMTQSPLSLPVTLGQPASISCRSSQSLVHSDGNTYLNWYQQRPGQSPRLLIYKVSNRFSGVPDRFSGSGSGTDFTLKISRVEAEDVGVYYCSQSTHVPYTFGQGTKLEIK	1160
AB1-6 (antibody, V domains shown, humanized) VH: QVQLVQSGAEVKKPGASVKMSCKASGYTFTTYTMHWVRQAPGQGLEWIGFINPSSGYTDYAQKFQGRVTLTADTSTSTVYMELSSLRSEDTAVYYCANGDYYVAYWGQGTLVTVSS VL: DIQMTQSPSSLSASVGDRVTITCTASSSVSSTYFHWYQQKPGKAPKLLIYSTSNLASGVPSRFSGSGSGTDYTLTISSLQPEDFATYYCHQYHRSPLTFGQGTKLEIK	29900
